Target: ATR (Homo sapiens (Human))
Sequence (Q13535 whole entry): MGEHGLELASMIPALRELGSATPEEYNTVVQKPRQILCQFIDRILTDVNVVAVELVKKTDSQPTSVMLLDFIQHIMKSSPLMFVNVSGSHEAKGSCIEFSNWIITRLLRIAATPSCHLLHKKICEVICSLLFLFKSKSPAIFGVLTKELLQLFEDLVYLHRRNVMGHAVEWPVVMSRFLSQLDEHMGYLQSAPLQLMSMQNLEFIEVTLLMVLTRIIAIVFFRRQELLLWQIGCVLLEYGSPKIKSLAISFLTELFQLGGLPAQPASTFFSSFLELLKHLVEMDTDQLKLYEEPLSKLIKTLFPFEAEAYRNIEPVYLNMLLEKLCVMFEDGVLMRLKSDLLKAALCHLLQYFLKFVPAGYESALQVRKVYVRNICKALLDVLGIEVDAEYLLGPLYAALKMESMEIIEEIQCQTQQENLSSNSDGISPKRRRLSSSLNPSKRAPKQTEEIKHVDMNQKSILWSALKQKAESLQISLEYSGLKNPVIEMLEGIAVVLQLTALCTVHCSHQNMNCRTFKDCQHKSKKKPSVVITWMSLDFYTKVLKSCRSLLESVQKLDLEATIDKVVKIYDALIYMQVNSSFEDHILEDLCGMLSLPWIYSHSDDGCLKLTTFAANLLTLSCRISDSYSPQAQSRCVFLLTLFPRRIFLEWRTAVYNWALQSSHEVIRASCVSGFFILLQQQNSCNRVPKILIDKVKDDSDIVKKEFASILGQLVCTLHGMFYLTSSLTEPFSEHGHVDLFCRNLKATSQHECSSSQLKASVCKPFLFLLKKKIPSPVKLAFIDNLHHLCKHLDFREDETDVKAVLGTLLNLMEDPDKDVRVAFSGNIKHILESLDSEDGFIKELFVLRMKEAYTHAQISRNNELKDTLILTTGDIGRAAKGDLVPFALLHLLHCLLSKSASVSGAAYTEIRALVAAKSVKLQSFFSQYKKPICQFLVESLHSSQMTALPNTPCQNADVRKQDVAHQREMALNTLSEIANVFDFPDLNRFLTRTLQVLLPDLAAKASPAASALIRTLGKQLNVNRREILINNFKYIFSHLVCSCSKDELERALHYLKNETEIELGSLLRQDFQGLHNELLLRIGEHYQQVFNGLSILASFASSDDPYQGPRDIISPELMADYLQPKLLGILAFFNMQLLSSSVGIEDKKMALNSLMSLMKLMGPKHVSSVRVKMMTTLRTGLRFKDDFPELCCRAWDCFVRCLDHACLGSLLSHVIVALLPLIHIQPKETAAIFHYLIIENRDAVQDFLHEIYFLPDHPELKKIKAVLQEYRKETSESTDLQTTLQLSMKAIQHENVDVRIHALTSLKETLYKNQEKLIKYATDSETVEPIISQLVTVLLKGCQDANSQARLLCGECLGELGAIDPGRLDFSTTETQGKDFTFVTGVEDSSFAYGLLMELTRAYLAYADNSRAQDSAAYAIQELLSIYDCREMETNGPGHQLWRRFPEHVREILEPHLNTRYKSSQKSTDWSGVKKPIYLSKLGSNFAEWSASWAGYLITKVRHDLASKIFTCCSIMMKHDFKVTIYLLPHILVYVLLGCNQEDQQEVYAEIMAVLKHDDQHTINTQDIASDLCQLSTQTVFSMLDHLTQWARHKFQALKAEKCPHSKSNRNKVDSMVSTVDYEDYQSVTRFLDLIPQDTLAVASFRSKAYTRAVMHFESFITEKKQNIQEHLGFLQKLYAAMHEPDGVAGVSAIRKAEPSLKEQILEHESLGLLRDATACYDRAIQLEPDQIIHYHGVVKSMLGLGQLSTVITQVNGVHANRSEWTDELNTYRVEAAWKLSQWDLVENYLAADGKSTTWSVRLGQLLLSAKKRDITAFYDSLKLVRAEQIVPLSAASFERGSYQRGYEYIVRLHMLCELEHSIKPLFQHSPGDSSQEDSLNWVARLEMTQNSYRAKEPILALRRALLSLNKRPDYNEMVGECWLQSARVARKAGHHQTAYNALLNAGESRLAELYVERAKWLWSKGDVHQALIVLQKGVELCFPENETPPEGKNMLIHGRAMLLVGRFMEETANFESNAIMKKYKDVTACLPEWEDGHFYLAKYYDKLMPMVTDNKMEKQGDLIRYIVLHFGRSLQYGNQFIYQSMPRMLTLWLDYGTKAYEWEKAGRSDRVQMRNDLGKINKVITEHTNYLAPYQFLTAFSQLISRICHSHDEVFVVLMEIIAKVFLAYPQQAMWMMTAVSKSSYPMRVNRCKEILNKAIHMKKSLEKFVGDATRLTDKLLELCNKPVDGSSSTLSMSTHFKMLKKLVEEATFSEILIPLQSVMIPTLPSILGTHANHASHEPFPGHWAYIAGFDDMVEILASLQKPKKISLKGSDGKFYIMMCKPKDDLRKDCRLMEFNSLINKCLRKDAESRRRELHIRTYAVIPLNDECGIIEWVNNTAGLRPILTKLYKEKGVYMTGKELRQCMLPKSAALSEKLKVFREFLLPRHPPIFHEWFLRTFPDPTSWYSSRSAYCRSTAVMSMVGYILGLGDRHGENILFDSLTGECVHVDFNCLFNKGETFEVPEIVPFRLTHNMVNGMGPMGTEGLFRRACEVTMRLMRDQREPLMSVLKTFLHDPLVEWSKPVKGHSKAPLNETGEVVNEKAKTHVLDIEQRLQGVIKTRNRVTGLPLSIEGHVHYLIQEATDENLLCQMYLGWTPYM
Assay: Cellular ATR inhibition, western blot of CHK1(S345) phosphorylation in hydroxyurea treated cells
Format: cell-based
Conditions: HT29 cells, hydroxyurea 2.5 mM
I'd appreciate it if you could supply EC50 values for the items below.

In: For CC(C)(O)c1nc(-c2cccc3[nH]ccc23)nc2c1OCC1COCCN21 (stereo not drawn) [Example 38] , what is its reported EC50?
Out: 100 to 1000 nM

In: For CC(C)(c1nc(-c2cccc3[nH]ccc23)nc2c1OCC1COCCN21)S(=O)(=O)C1CC1 (stereo not drawn) [Example 4] , what is its reported EC50?
Out: < 100 nM

In: For CS(=O)(=O)C1(c2nc(-c3cc(F)cc4[nH]ccc34)nc3c2OC[C@@H]2COCCN32)CCOCC1 [Example 28] , what is its reported EC50?
Out: < 100 nM

In: For CS(=O)(=O)C1(c2nc(-c3cc(C(F)(F)F)cc4[nH]ccc34)nc3c2OC[C@@H]2COCCN32)CC1 [Example 108] , what is its reported EC50?
Out: 100 to 1000 nM

In: For CC(C)(c1nc(-c2cccc3[nH]ccc23)nc2c1OC[C@H]1COCCN21)S(C)(=O)=O [Example 15] , what is its reported EC50?
Out: 100 to 1000 nM

In: For CC(C)(c1nc(-c2cccc3[nH]ccc23)nc2c1OCC[C@@H]1COCCN21)S(C)(=O)=O [Example 25] , what is its reported EC50?
Out: 100 to 1000 nM

In: For C[S@TB17](=O)(=O)Nc1nc(-c2cccc3[nH]ccc23)nc2c1OCC1COCCN21 (stereo not drawn) [Example 35] , what is its reported EC50?
Out: > 1000 nM

In: For CNc1nc2ccccc2n1-c1nc2c(c(C(C)(C)[S@TB1](C)(=O)=O)n1)OCCC1COCCN21 (stereo not drawn) [Example 31] , what is its reported EC50?
Out: < 100 nM

In: For CNc1nc2cc(Cl)ccc2n1-c1nc2c(c(C3(S(C)(=O)=O)CCC3)n1)OC[C@@H]1COCCN21 [Example 94] , what is its reported EC50?
Out: > 1000 nM

In: For CS(=O)(=O)C1(c2nc(-c3c(F)ccc4[nH]ccc34)nc3c2OCC2COCCN32)CCOCC1 (stereo not drawn) [Example 13] , what is its reported EC50?
Out: 100 to 1000 nM

In: For Cc1cc2c(-c3nc4c(c(C5(S(C)(=O)=O)CCC5)n3)OC[C@@H]3COCCN43)cccc2[nH]1 [Example 93] , what is its reported EC50?
Out: 100 to 1000 nM

In: For CS(=O)(=O)C1(c2nc(-c3ccc(F)c4[nH]ccc34)nc3c2OC[C@@H]2COCCN32)CCC1 [Example 76] , what is its reported EC50?
Out: > 1000 nM

In: For CS(=O)(=O)C1(c2nc(-c3cc(F)cc4[nH]ccc34)nc3c2OCC2COCCN32)CCOCC1 (stereo not drawn) [Example 17] , what is its reported EC50?
Out: < 100 nM

In: For COc1cc(-c2nc3c(c(C(C)(C)S(C)(=O)=O)n2)OC[C@@H]2COCCN32)c2cc[nH]c2c1 [Example 72] , what is its reported EC50?
Out: 100 to 1000 nM

In: For CNc1nc2ccccc2n1-c1nc2c(c(C3(S(C)(=O)=O)CCOCC3)n1)OCCC1COCCN21 (stereo not drawn) [Example 32] , what is its reported EC50?
Out: > 1000 nM
